Attribute: RHIZSO inhibition of mycelial growth rating
Test system: Rhizoctonia solani
Assay: In vitro fungicidal activity, Rice sheath blight (RHIZSO)
Assay type: cell-based
Set-up: key: 0: None; 3: slight; 5: moderate; 7: severe; 9: complete
Details: 10 ppm, 3-7 days of incubation
Experimental: Test compounds are dissolved in acetone to give concentrations of 25, 10 and 1 ppm and are added to individual cell Walls (24-cell-well plates, Corning), which were previously filled with a suspension of ground plates, Corning), which were previously filled with a suspension of ground fungal mycelium in a chemically defined growth medium. After 3-7 days of incubation, inhibition of […] growth is recorded using the following scale: The data obtained are shown in Table II. [table]
No unit in the answer, only the number.

These recorded examples may help you get a feel for the data.
CC(N=c1c(-c2ccccc2Cl)c(Cl)n(C)c2ncnn12)C(F)(F)F (stereo not shown) ... 0
Cn1c(Cl)c(-c2c(F)cc(F)cc2F)c(=NCC(F)(F)F)n2ncnc12 [Example 17] ... 7
CCCn1cnn2c(=NC(C)C(F)(F)F)c(-c3c(F)cc(F)cc3F)c(Cl)nc12 (stereo not shown) ... 0
CC(N=c1c(-c2ccc(F)cc2F)c(Cl)nc2n(C)cnn12)C(F)(F)F (stereo not shown) ... 7
CC(N=c1c(-c2ccccc2Cl)c(Cl)nc2n(C)cnn12)C(F)(F)F (stereo not shown) ... 0
CCCOc1cc(F)c(-c2c(Cl)nc3n(CCC)cnn3c2=NC(C)C(F)(F)F)c(F)c1 (stereo not shown) ... 7

Query block: Bench note: what RHIZSO inhibition of mycelial growth rating did Cn1c(Cl)c(-c2c(F)cc(F)cc2F)c(=NCC(F)(F)F)n2ncnc12 [Example 8] show?
Result block: 7
